# Tested on: HCT-116 colon
# Method notes: NCI-60 one-dose screen, 48 h
# Details: 10 µM unless noted
This is part of a sample that, as a whole, favours compounds with a hit. Of some 83,000 tested, about 20% had one in any assay. The source made the active and inactive calls. The calls were made as follows: active = growth percent below 10; inactive = the rest.
Classes used: Y = active, N = inactive

| Compound | Tested on | Cat |
| --- | --- | --- |
| O=C1/C(=C/c2cccc([N+](=O)[O-])c2)COc2ccc(O)c(O)c21 | HCT-116 colon | Y |
| COC(=O)[C@H](C)NC(=O)[C@@H]1CCCN1C(=O)CNC(=O)[C@H](C)N | HCT-116 colon | N |
| CC(C)(C)n1cc(-c2ccnc(NCCNS(=O)(=O)c3ccc(C(F)(F)F)cc3)c2)c(-c2ccccc2)n1 | HCT-116 colon | N |
| O=C(Nc1ccccc1)Nc1ccccc1CNc1nc(Nc2ccc(OCCN3CCCC3)cc2)ncc1Cl | HCT-116 colon | N |
| CCOc1cc(\C=N/N=C(N)/C(N)=N\N=C/c2ccc(O)c(OCC)c2)ccc1O | HCT-116 colon | N |
| CC(C)(C)n1cc(-c2ccnc(NCCNS(=O)(=O)c3cccc4ccccc34)c2)c(-c2cccc(O)c2)n1 | HCT-116 colon | N |
| O=c1ccc2nc(-c3ccccc3)nn(-c3ccccn3)c-2c1 | HCT-116 colon | N |
| O=C1C(Nc2ccc(Br)cc2)=C(I)C(=O)c2ncccc21 | HCT-116 colon | Y |
| CC1OC(C(=O)N2CCN(CCO)CC2)CC1COC1CCCCC1 (stereo not drawn) | HCT-116 colon | N |
| CC(C)C(=O)Nc1ncc(C(=O)NCCN(Cc2ccccc2)C(=O)c2ccc(S(=O)(=O)Nc3ccccc3)cc2)s1 | HCT-116 colon | N |
| Cc1ccc(C23CCC(=O)N2CCc2cncn23)cc1 (stereo not drawn) | HCT-116 colon | N |
| c1ccc(-c2nc(N3CCNCC3)c3oc(-c4ccccc4)nc3n2)cc1 | HCT-116 colon | Y |
| N#Cc1c(-c2ccc(Cl)cc2)nc(NN=Cc2cccc(Cl)c2)nc1N1CCOCC1 | HCT-116 colon | N |

----------
# Test system: U251 CNS
# Method notes: NCI-60 one-dose screen, 48 h (100 = growth as untreated, 0 = no growth, -100 = all killed)
# Details: 10 µM unless noted
Compounds without any hit were thinned out: in the full panel of roughly 83,000, 20% have a hit.
Record condition met whenever growth is at 30% or higher; record condition not met when lower.

| Structure smiles | Cat |
| --- | --- |
| COc1cc(C(=O)c2c(-c3ccccc3)oc3ccccc23)cc(OC)c1O | condition not met |
| C#Cc1cccc(Nc2ncnc3ccc(-c4cnc(Cl)c(NS(C)(=O)=O)c4)cc23)c1 | condition not met |
| CCN1CCN(C(=O)[C@]23CC[C@@H](C)[C@H](C)[C@@H]2C2=CC[C@@H]4[C@@]5(C)C/C(=C/c6ccncc6)C(=O)C(C)(C)[C@@H]5CC[C@@]4(C)[C@]2(C)CC3)CC1 | condition not met |
| COC(=O)c1c(C)nc(C)c2c1C(=O)C(Br)=C(NCCN1CCOCC1)C2=O | condition met |
| CC(C)c1nc(N(C)S(C)(=O)=O)nc(-c2ccc(F)cc2)c1/C=C/C(=O)C[C@@H](O)CC(=O)O | condition met |
| O=C1CCc2c(sc3[nH]c(=S)n(-c4cc(C(F)(F)F)cc(C(F)(F)F)c4)c(=O)c23)C1 | condition not met |
| Cc1csc(Nc2nc(-c3cccc(Cl)c3)nc(C(Cl)(Cl)Cl)n2)n1 | condition not met |
| c1ccc2[nH]c(-c3ccc(-c4nccc5c4[nH]c4ccccc45)cc3)nc2c1 | condition not met |

----------
# Tested on: ACHN renal
# Method notes: NCI-60 one-dose screen, 48 h (100 = growth as untreated, 0 = no growth, -100 = all killed)
# Details: 10 µM unless noted
The panel holds about 83,000 compounds, 20% with a hit somewhere; the sample as a whole holds those more often.
# if measured growth < 90%: YES  # else: NO

| Compound | Cat |
| --- | --- |
| CC(C)n1nc(-c2ccc3oc(N)nc3c2)c2c(N)ncnc21 | YES |
| Oc1cccc(-c2nc(-c3n[nH]c(=S)n3-c3ccccc3)cc3c2[nH]c2ccccc23)c1 | YES |
| O=C(Nc1ncc(Cc2cc(C(F)(F)F)ccc2Cl)s1)C(=S)N1CCOCC1 | NO |
| CC1(C)CC(=O)C2=C(C1)OC(C(=O)c1ccccc1)C2c1cccc(Oc2ccccc2)c1 (stereo not given) | YES |
| COC(=O)[C@@H](Cc1c[nH]c2ccccc12)NC(=O)[C@H](Cc1ccccc1)NCc1ccncc1 | NO |
| O=C1C=CC2(O)OC(c3ccccc3)CC(=O)C2=C1O (stereo not given) | NO |
| CC1=NC(=S)NC(c2ccccc2)/C1=C1/CC(c2ccccc2O)NN1 (stereo not given) | NO |
| C#C[C@]1(O)CC[C@H]2[C@@H]3CC=C4c5sc(-c6cccc(C)c6)nc5CC[C@]4(C)[C@H]3CC[C@@]21C | YES |
| Cc1c(Cl)cccc1NC(=O)c1sc2nc3c(cc2c1N)CCCC3 | YES |
| C#C[C@]1(O)CC[C@H]2[C@@H]3CC=C4c5sc(-c6ccccc6)nc5CC[C@]4(C)[C@H]3CC[C@@]21C | YES |
| CCOC(=O)C1=CCC(n2cc(F)c(=O)[nH]c2=O)O1 (stereo not given) | NO |
| COc1cccc(/C=C2\CCc3ccccc3C2=O)c1 | NO |
| Nc1nc(=O)n([C@H]2CC=C(CO)O2)cc1F | NO |
| CCCCCCCC/C=C\CCCCCCCCOc1ccc(CC(=O)NCC[N+]2(C)CCCC2)cc1 | YES |
| O=C1N/C(=N/N=C(c2ccccc2)c2ccccc2)S/C1=C\c1ccc(Br)cc1 | NO |
| O=c1ccc2nc(-c3ccccc3)nn(-c3ccccn3)c-2c1 | YES |
| Cc1cc2nc(C(Cl)Cl)nc(-c3ccccc3)n2n1 | YES |
| CCCCCN(CCCCC)CC(O)c1c(Cl)ccc2ccccc12 (stereo not given) | YES |
| CNC(=O)c1cc(Oc2cccc3nc(NC(=O)Nc4ccc(F)cc4F)ccc23)ccn1 | YES |
| Clc1nc(N2CCC[N+]3(CC2)CC[N+]2(CCCNCC2)CC3)nc(N2CCC[N+]3(CC2)CC[N+]2(CCCNCC2)CC3)n1 (stereo not given) | NO |
| COc1cc(C)cc(-c2c(-c3cc(N4CC(O)C4)nc(-c4cccnc4)n3)cnn2C)c1 | YES |
| C#CCOc1cccc(Nc2c(Cl)c(CCl)nc3ccc(Oc4ccccc4)cc23)c1 | YES |
| COc1ccc(/C=C/C(=O)c2ccc(-n3cc(CN4CCN(c5cc6c(cc5F)c(=O)c(C(=O)O)cn6C5CC5)CC4)nn3)cc2)cc1 | YES |
| CS(=O)(=O)Nc1cc(-c2ccc3ncnc(Nc4cccc(Cl)c4)c3c2)cnc1Cl | YES |
| COc1cc(/C=C2\C(=O)N(CCOc3cc(O)c4c(=O)cc(-c5ccccc5)oc4c3)c3ccccc32)cc(OC)c1O | YES |
| COc1ccccc1/C=C/C1=C(C)CCC(c2ccccc2OC)C1C (stereo not given) | YES |
| O=C1NCCN1/N=C/c1c(Cl)n(Cc2ccc(Cl)cc2)c2ccccc12 | NO |
| CC(=O)Cc1nsc(NC(=O)c2cc(-c3cc(Cl)ccc3Cl)oc2C)n1 | NO |
| O=C1NC(=O)C(=Cc2cc(-c3ccc(Cl)cc3)n(-c3ccccc3)n2)C(=O)N1 | NO |
| CNC1=C([N+](=O)[O-])C(c2ccc(OC)cc2)C(C#N)=C(c2ccc[nH]2)O1 (stereo not given) | NO |
| O=C(Nc1cccc(Cl)c1)Oc1c(Cl)c(Cl)c(Cl)c(Cl)c1Cl | NO |
| CC/C(=C(/c1ccc(Cl)cc1)c1ccc(OCCN(CC)CC)cc1)c1ccc(OC)cc1 | YES |
| N#Cc1nn(-c2ccccn2)c(N)c1C#N | NO |

----------
Recorded measurements of growth, one per entry
# System: EKVX NSCLC
# Method notes: NCI-60 one-dose screen, 48 h (100 = growth as untreated, 0 = no growth, -100 = all killed)
# Details: 10 µM unless noted
The panel holds about 83,000 compounds, 20% with a hit somewhere; the sample as a whole holds those more often.

| Compound | growth [%] |
| --- | --- |
| Nc1ncc(-c2ccc3ncnc(N4CCc5cc(F)c(Cl)cc54)c3c2)cn1 | 15.7 |
| COc1cc2c(c(OC)c1OC)CCC(c1cccc(C(=O)Nc3ccc([N+](=O)[O-])cc3)c1)O2 (configuration not stated) | 55.4 |
| CNC1=C(Br)C(=O)c2c(C(=O)OC)c(C)nc(C)c2C1=O | 79.3 |
| c1ccc(-c2nc(N3CCNCC3)c3oc(-c4ccccc4)nc3n2)cc1 | -68.4 |
| COc1ccc(C2=NN3C(C2)c2cc(Br)ccc2OC3c2ccncc2)cc1 (configuration not stated) | 83.6 |
| [2H]C([2H])([2H])Oc1ccc(/C=C/C(=O)/C=C(O)/C=C/c2ccc(OC([2H])([2H])[2H])c(OC([2H])([2H])[2H])c2)cc1OC([2H])([2H])[2H] | 53.1 |
| CN1CCN(Cn2nc(-c3cc(Cl)cc(Cl)c3Cl)oc2=S)CC1 | 102 |
| O=C(/C=C/c1cccc([N+](=O)[O-])c1)c1ccc(Nc2nc(Nc3ccc(F)cc3)nc(Nc3ccc(Cl)cc3)n2)cc1 | 79.5 |
| CCOC(=O)CCC(=O)P(=O)(O)O | 106 |
| COC1=C(OC)C(=O)C(CCCCCCCCCCO)=C(C)C1=O | 89.8 |
| CC/C(=C(/c1ccc(Cl)cc1)c1ccc(OCCN2CCCCCC2)cc1)c1ccccc1 | 85 |
| CCOC(=O)c1cc(C(=O)c2cc(OC)cc(OC)c2)n2ccccc12 | 73.7 |
